target: Type-2 angiotensin II receptor (Oryctolagus cuniculus); test: The compound was tested for binding affinity against Angiotensin II receptor, type 2 from rabbit uterus membrane by using [125I]AngII as radioligand
observed-property: IC50

compound-structure: CCCCc1ncc(C=C2C(=O)NC(=O)N2CCCC)n1Cc1ccc(-c2ccccc2-c2nnn[nH]2)cc1
IC50: 0.789 µM

# query: IC50 | item CCCCc1ncc(/C=C2/C(=O)N(CCCC)C(=O)N2CCCC)n1Cc1ccc(C(=O)OC)cc1 | system: Type-2 angiotensin II receptor (Oryctolagus cuniculus)
5.87 µM
